Target Under Test: recombinant human RORγt LBD (Homo sapiens)
Sequence (P51449 258-518): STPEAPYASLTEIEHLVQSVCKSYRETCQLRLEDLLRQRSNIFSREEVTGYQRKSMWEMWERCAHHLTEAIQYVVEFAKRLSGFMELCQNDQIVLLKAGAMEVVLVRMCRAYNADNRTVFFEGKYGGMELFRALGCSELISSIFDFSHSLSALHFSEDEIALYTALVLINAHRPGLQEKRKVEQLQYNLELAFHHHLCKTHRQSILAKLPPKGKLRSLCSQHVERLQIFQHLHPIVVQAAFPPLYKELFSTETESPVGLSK
Measurement Notes: Human RORγt radioligand competition binding assay
Study Conditions: the ligand that is used tritiated as radioligand; n = 6
Parameter Measured: pIC50
Reminder that pIC50 is minus the log10 of a molar concentration.

Query :: Endpoint output: pIC50 of CCS(=O)(=O)c1ccc(CC(=O)Nc2cc(-c3ccccc3COC)cs2)cc1 [reference compound] . Value?
Result :: 7.32

====

Target Under Test: recombinant murine RORγt LBD (Mus musculus)
Construct: 10nM purified HN-AVI-GST-TCS-mRORγ(aa256-516) was mixed with
Sequence (P51450 256-516): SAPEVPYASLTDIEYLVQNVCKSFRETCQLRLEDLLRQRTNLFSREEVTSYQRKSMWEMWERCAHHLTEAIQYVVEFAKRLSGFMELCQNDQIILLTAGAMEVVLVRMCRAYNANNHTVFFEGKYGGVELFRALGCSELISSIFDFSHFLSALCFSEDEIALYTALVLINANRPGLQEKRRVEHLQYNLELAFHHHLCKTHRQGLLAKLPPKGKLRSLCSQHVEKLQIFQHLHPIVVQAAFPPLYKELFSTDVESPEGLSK
Measurement Notes: Murine RORγt radioligand competition binding assay
Study Conditions: tritiated ligand, used for Ki calculation
Parameter Measured: pKd
Reminder that pKd is minus the log10 of a molar concentration.

Query :: What value of pKd on recombinant murine RORγt LBD (Mus musculus) does CCS(=O)(=O)c1ccc(CC(=O)Nc2cc(-c3ccccc3COC)cs2)cc1 [reference compound] have?
Result :: 7.35
